Catalogue of pEC50 values
test system: Influenza A virus H5N1, Influenza A/Vietnam/1203/2004 × A/PR/8/34 (recombinant H5N1); test: microbe, parasite or virus in culture; format: cell-based; details: H5N1|PR/8, MDCK
As a rule, pEC50 stands for the negative log10 of the concentration, concentration in M.

# count of solved cases: 2
COc1cc(-c2c(C#N)c(N)nc3c2c(C)nn3-c2ccc(F)cc2)ccc1O | 5.44
CCOc1cc(-c2c(C#N)c(O)nc3c2c(C)nn3-c2ccc(F)cc2)ccc1O | 4.55

Consider now this further compound.
// fetch pEC50 given entry NC(=O)c1ncn([C@@H]2O[C@H](CO)[C@@H](O)[C@H]2O)n1 [Ribavirin, reference compound]
4.49
